- Test system: Klebsiella pneumoniae
- Assay Remarks: Antibacterial activity against Klebsiella pneumoniae FADDI-KP065 assessed as decrease in bacterial growth at 0.25 to 4 mg/L in presence of lung surfactant by broth microdilution assay
- Type: functional, organism-based
- Test Context: dose 0.25-4 mg/L
Calls of active or inactive are those of the source. The calls are words filed in the database; no cut-off is given here. Where a SMILES comes first, the peptide text is derived from it. Bridges are numbered along the chain shown (N, C = ends). [ ]: non-standard residue; d: D form. The star is where a group is joined. X1 = CC[C@H](C)CCCCC(=O)*; Dab = NCC[C@H](N)C(=O)O
Reported Metric: Activity

Compound | Target Or System | Assay Result
CC[C@H](C)CCCCC(=O)N[C@@H](CCN)C(=O)N[C@H](C(=O)N[C@@H](CCN)C(=O)N[C@H]1CCNC(=O)[C@H]([C@@H](C)O)NC(=O)[C@H](CCN)NC(=O)[C@H](CCN)NC(=O)[C@H]([C@@H](C)O)NC(=O)[C@@H](CC(C)C)NC(=O)[C@H](CCN)NC1=O)[C@@H](C)O (X1-[Dab]T[Dab][Dab][Dab][dL]T[Dab][Dab]T; lactam 4-C) | Klebsiella pneumoniae | Active
CC[C@H](C)CCCCC(=O)N[C@@H](CCN)C(=O)N[C@H](C(=O)N[C@@H](CCN)C(=O)N[C@H]1CCNC(=O)[C@H]([C@@H](C)O)NC(=O)[C@H](CCN)NC(=O)[C@H](CCN)NC(=O)[C@H](CC(C)C)NC(=O)[C@@H](Cc2ccccc2)NC(=O)[C@H](CCN)NC1=O)[C@@H](C)O (X1-[Dab]T[Dab][Dab][Dab][dF]L[Dab][Dab]T; lactam 4-C) | Klebsiella pneumoniae | Active
